molecular target: NMDA receptor; assay: [3H]-(+)-MK-801 binding to rat cortical membranes; settings: read-out: [3H] MK-801 IC50; Table 7; footnote calls the values Ki
Catalogue of IC50 values
Number only, in µM; omit the unit.

compound	IC50 / µM
CC1(C)CC(N)CC(C)(C)C1	17.6
CCC[C@]1(C)C[C@@H](C)C[C@@](C)(N)C1 (relative stereo)	72.1

Query CCC1(C)CC(C)(C)CC(C)(N)C1 (stereo not drawn) yields IC50 of 2.5

* * *

conditions: i.p.; minimal lethal dose
quantity.kind: Min Lethality (mg/kg)
Give just the number in mg/kg; leave the unit off.

mol	Min Lethality (mg/kg)
CCCC1(N)CC(C)(C)CC(C)(C)C1	50

Here's the next entry for you.
Short answer for CNC1(C)CC(C)(C)CC(C)(C)C1.Cl : Min Lethality was 108
